Please provide measured IC50 for the entries that follow.
Target: SARM1 (50-724) (Homo sapiens)
Construct: Purified SARM1 (50-724) with a final concentration of 2 nM
Assay: SARM1 (50-724) enzymatic assay (NMN-activated NAD+ hydrolysis, LC-MS/MS readout)
Settings: purified SARM1 (50-724) 2 nM, 200 μM NMN activator, 100 μM NAD+ substrate, 1 h at room temperature, read-out: IC50 (SARM1 inhibitory activity)

Can you look up the measured IC50 of O=C(c1nc2cc(C(F)(F)F)ccc2[nH]1)N(CCN1CC(F)(F)C1)c1cccc(Cl)c1Cl for me?
≤ 100 nM

Would you mind doing CN(C(=O)c1[nH]c2ccc(F)cc2c1CO)C1CCCC1 as well?
≥ 1000 nM

Would you mind doing O=C(c1nc2cc(C(F)(F)F)ccc2[nH]1)N(CCN1CCC1)c1cccc(Cl)c1Cl as well?
101 to 500 nM

Would you mind doing CN(C(=O)c1nc2ccccc2o1)C1CCCC1 as well?
≥ 1000 nM

Would you mind doing Cc1ccc(N(C)C(=O)c2[nH]c3ccc(C)cc3c2CO)cc1 as well?
≥ 1000 nM

Would you mind doing O=C(c1nc2cc(C(F)(F)F)ccc2[nH]1)N(Cc1cc[nH]n1)c1cccc(Cl)c1Cl as well?
≤ 100 nM

* * *

Target: SARM1 (50-724) (Homo sapiens, UniProt Q6SZW1)
Construct: Purified SARM1 (50-724) with a final concentration of 2 nM
Experiment: SARM1 (50-724) enzymatic assay (NMN-activated NAD+ hydrolysis, LC-MS/MS readout)
Details: purified SARM1 (50-724) 2 nM, 200 μM NMN activator, 100 μM NAD+ substrate, 1 h at room temperature, read-out: IC50 (SARM1 inhibitory activity)
measuredAttribute: IC50

Can you look up the measured IC50 of COC(=O)C(C)(C)c1ccc2[nH]c(C(=O)N(CC3(F)COC3)c3cccc(Cl)c3Cl)nc2c1 for me?
≤ 100 nM

Would you mind doing CN(C(=O)c1cc2ccccc2[nH]1)C1CCCC1 as well?
≥ 1000 nM

Would you mind doing CN(C(=O)c1nc2c([nH]1)CCCC2)C1CCCC1 as well?
≥ 1000 nM

Would you mind doing Cc1ccc2[nH]c(C(=O)N(CCO)c3cccc(Cl)c3Cl)nc2c1-c1cc[nH]c(=O)c1 as well?
101 to 500 nM

Would you mind doing O=C(c1nc2cc(C(F)(F)F)ccc2[nH]1)N(CCO)c1ccc(F)c(F)c1Cl as well?
≤ 100 nM

Would you mind doing O=C(c1nc2cc(CO)ccc2[nH]1)N(CCO)c1cccc(Cl)c1Cl as well?
101 to 500 nM

Would you mind doing Cc1cc(-c2ccc3[nH]c(C(=O)N(CCO)c4cccc(Cl)c4Cl)nc3c2)sn1 as well?
101 to 500 nM

Would you mind doing Cc1ccc2[nH]c(C(=O)N(C)c3ccccc3C#N)c(CO)c2c1 as well?
≥ 1000 nM

Would you mind doing O=C1NC(CN(C(=O)c2nc3cc(C(F)(F)F)ccc3[nH]2)c2cccc(F)c2Cl)CO1 (racemic) as well?
≤ 100 nM

Would you mind doing Cn1cc(-c2ccc3[nH]c(C(=O)N(CCO)c4cccc(Cl)c4Cl)nc3c2)cn1 as well?
101 to 500 nM

Would you mind doing Cc1cccc(N(CCO)C(=O)c2nc3cc(C(F)(F)F)ccc3[nH]2)c1Cl as well?
≤ 100 nM

Would you mind doing Cc1ccc2[nH]c(C(=O)N3CCCCC3)c(CNc3ccccn3)c2c1 as well?
≥ 1000 nM

Would you mind doing CC(C)(O)CCN(C(=O)c1nc2cc(C(F)(F)F)ccc2[nH]1)c1cccc(Cl)c1Cl as well?
≤ 100 nM

Would you mind doing O=C(c1nc2cc(-c3cscn3)ccc2[nH]1)N(CCO)c1cccc(Cl)c1Cl as well?
≤ 100 nM

Would you mind doing O=C(c1nc2cc(C(F)(F)F)ccc2[nH]1)N(CC(F)(F)CO)c1cc(F)c(F)cc1Cl as well?
101 to 500 nM

Would you mind doing Cc1ccc2[nH]c(C(=O)N(C)C3CCCC3)nc2n1 as well?
≥ 1000 nM

Would you mind doing O=C(c1nc2cc(C(F)(F)F)ccc2[nH]1)N(CCN1CC(O)C1)c1cccc(Cl)c1Cl as well?
≤ 100 nM

Would you mind doing O=C(c1nc2cc(C3CC3)ccc2[nH]1)N(CCO)c1cccc(Cl)c1Cl as well?
≤ 100 nM

Would you mind doing Cc1ccc2[nH]c(C(=O)N(C)C3CCCC3)c(C#N)c2c1 as well?
101 to 500 nM

Would you mind doing CN(C(=O)c1nc2c(C#N)cccc2[nH]1)C1CCCC1 as well?
≥ 1000 nM

Would you mind doing Cc1cccc(N(C)C(=O)c2nc3cc(C(F)(F)F)ccc3[nH]2)c1Cl as well?
≤ 100 nM

Would you mind doing CC(C)(CO)c1ccc2[nH]c(C(=O)N(CC3(F)COC3)c3cccc(Cl)c3Cl)nc2c1 as well?
≤ 100 nM

Would you mind doing O=C(c1nc2cc(C(F)(F)F)ccc2[nH]1)N(CC(F)(F)C(=O)O)c1cccc(Cl)c1Cl as well?
≤ 100 nM

Would you mind doing Cc1ccc2[nH]c(C(=O)N(C)C3CCCC3)c(C(N)=O)c2c1 as well?
≤ 100 nM

Would you mind doing CC(C)c1ccc2[nH]c(C(=O)N(C)C3CCCC3)c(CO)c2c1 as well?
101 to 500 nM

Would you mind doing Cc1ccc2[nH]c(C(=O)N(C)C3CCCC3)c(CNc3cncs3)c2c1 as well?
101 to 500 nM

Would you mind doing CN(C(=O)c1nc2cc(Br)ccc2[nH]1)C1CCCC1 as well?
101 to 500 nM

Would you mind doing CS(=O)(=O)CCCN(C(=O)c1nc2cc(C(F)(F)F)ccc2[nH]1)c1cccc(F)c1Br as well?
≤ 100 nM

Would you mind doing COc1ccccc1N(C)C(=O)c1[nH]c2ccc(C)cc2c1CO as well?
≥ 1000 nM

Would you mind doing COCCc1c(C(=O)N(C)C2CCCC2)[nH]c2ccc(C)cc12 as well?
101 to 500 nM

Would you mind doing CN(C(=O)c1nc2c([nH]1)C(=O)CCC2)C1CCCC1 as well?
≥ 1000 nM

Would you mind doing N#Cc1cc(Cl)c(Cl)c(N(CCO)C(=O)c2nc3cc(C(F)(F)F)ccc3[nH]2)c1 as well?
101 to 500 nM

Would you mind doing CS(=N)(=O)CCCN(C(=O)c1nc2cc(C(F)(F)F)ccc2[nH]1)c1cccc(F)c1Cl (stereo not shown) as well?
≤ 100 nM

Would you mind doing C=C(c1cn[nH]c1)c1ccc2[nH]c(C(=O)N(CCO)c3cccc(Cl)c3Cl)nc2c1 as well?
≤ 100 nM

* * *

Biological target: SARM1 (50-724) (Homo sapiens)
Construct: Purified SARM1 (50-724) with a final concentration of 2 nM
Test: SARM1 (50-724) enzymatic assay (NMN-activated NAD+ hydrolysis, LC-MS/MS readout)
Settings: purified SARM1 (50-724) 2 nM, 200 μM NMN activator, 100 μM NAD+ substrate, 1 h at room temperature, read-out: IC50 (SARM1 inhibitory activity)
Please provide measured IC50 for the entries that follow.

Can you look up the measured IC50 of CC(c1cn[nH]c1)c1ccc2[nH]c(C(=O)N(CCO)c3cccc(Cl)c3Cl)nc2c1 (racemic) [Compound 189] for me?
≤ 100 nM

Would you mind doing Cn1nc(N(CC2COC2)C(=O)c2nc3cc(C(F)(F)F)ccc3[nH]2)c(Cl)c1Cl [Compound 111] as well?
≤ 100 nM

Would you mind doing [2H]C([2H])([2H])N(C(=O)c1nc2cc(C(F)(F)F)ccc2[nH]1)c1cncc(Cl)c1C [Compound 166] as well?
≤ 100 nM

Would you mind doing O=C(c1nc2cc(C(F)(F)F)ccc2[nH]1)N(CCO)c1cccc(Cl)c1Cl [Compound 103] as well?
≤ 100 nM

Would you mind doing Cn1nc(Cl)c(Cl)c1N(CCO)C(=O)c1nc2cc(C(F)(F)F)ccc2[nH]1 [Compound 126] as well?
≥ 1000 nM

Would you mind doing Cc1ccnc(N(CC(F)(F)CO)C(=O)c2nc3cc(C(F)(F)F)ccc3[nH]2)c1Cl [Compound 156] as well?
101 to 500 nM

Would you mind doing CNCCN(C(=O)c1nc2cc(C(F)(F)F)ccc2[nH]1)c1cccc(Cl)c1Cl [Compound 121] as well?
101 to 500 nM

Would you mind doing Cc1cccc(N(CCO)C(=O)c2nc3cc(C(F)(F)F)ccc3[nH]2)c1F [Compound 172] as well?
501 to 1000 nM

* * *

Please provide measured IC50 for the entries that follow.
Biological target: SARM1 (50-724) (Homo sapiens, UniProt Q6SZW1)
Construct: Purified SARM1 (50-724) with a final concentration of 2 nM
Sequence (Q6SZW1 50-724): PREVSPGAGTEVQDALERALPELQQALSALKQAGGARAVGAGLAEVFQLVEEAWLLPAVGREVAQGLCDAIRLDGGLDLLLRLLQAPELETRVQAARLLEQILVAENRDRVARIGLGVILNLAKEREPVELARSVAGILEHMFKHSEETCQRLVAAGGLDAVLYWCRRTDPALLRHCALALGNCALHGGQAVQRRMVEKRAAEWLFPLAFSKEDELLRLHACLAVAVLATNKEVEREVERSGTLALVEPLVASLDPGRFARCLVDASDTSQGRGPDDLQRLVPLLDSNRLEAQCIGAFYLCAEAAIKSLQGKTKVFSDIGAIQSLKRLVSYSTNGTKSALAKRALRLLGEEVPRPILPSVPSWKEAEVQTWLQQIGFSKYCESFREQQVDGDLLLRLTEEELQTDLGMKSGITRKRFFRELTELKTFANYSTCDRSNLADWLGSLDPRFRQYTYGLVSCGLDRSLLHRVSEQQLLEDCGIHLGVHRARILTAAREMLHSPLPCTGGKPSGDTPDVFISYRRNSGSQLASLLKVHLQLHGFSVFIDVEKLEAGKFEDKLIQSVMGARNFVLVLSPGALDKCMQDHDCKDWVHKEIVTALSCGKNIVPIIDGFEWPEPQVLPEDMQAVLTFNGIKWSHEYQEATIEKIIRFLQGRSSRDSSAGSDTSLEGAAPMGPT
Assay: SARM1 (50-724) enzymatic assay (NMN-activated NAD+ hydrolysis, LC-MS/MS readout)
Conditions: purified SARM1 (50-724) 2 nM, 200 μM NMN activator, 100 μM NAD+ substrate, 1 h at room temperature, read-out: IC50 (SARM1 inhibitory activity)

// map CC(C)c1c[nH]c(C(=O)N(C)C2CCCC2)n1 to recorded IC50 (system: SARM1 (50-724) (Homo sapiens, UniProt Q6SZW1))
≥ 1000 nM

Would you mind doing Cc1ccc2[nH]c(C(=O)N(C)C3CCN(C)CC3)c(CNc3ccccn3)c2c1 as well?
≥ 1000 nM

Would you mind doing O=C(c1nc2cc(C(O)C3CC3)ccc2[nH]1)N(CCO)c1cccc(Cl)c1Cl (racemic) as well?
≥ 1000 nM

Would you mind doing Cc1c(Cl)cncc1N(CCO)C(=O)c1nc2cc(C(F)(F)F)ccc2[nH]1 as well?
≤ 100 nM

Would you mind doing O=C(c1nc2cc(C(F)(F)F)ccc2[nH]1)N(c1cccc(Cl)c1Cl)C1CNC1 as well?
≥ 1000 nM

Would you mind doing Cc1ccc2[nH]c(C(=O)N(C)c3cccc(Cl)c3)c(CO)c2c1 as well?
≥ 1000 nM

Would you mind doing Cc1ccc2[nH]c(C(=O)N(C)c3c(F)cccc3F)c(CO)c2c1 as well?
501 to 1000 nM

Would you mind doing Cc1ccc2[nH]c(C(=O)N(C)C3CCCC3)c(CNc3ncc[nH]3)c2c1 as well?
≥ 1000 nM

Would you mind doing O=C(c1nc2cc(C(F)(F)F)ccc2[nH]1)N(CC(O)CO)c1cccc(Cl)c1Cl (racemic) as well?
≤ 100 nM

Would you mind doing Cc1ccc2[nH]c(C(=O)N(CCO)c3cccc(Cl)c3Cl)nc2c1 [Compound 50] as well?
≥ 1000 nM

Would you mind doing CC(C)(O)c1ccc2[nH]c(C(=O)N(CC3(F)COC3)c3cccc(Cl)c3Cl)nc2c1 as well?
≤ 100 nM

Would you mind doing Cc1c(Cl)ccnc1N(CCO)C(=O)c1nc2cc(C(F)(F)F)ccc2[nH]1 as well?
101 to 500 nM

Would you mind doing CN(C(=O)C1Cc2ccccc2N1)C1CCCC1 (centres unmarked) as well?
≥ 1000 nM

Would you mind doing Cc1ccc2[nH]c(C(=O)N(C)c3ccccc3Cl)c(CO)c2c1 as well?
101 to 500 nM

Would you mind doing COCC1(CN(C(=O)c2nc3cc(C(F)(F)F)ccc3[nH]2)c2cccc(Cl)c2Cl)COC1 as well?
≤ 100 nM

Would you mind doing Cc1c[nH]c(-c2ccc3[nH]c(C(=O)N(CCO)c4cccc(Cl)c4Cl)nc3c2)n1 as well?
≥ 1000 nM

Would you mind doing O=C(c1nc2c(F)c(Cl)ccc2[nH]1)N(CC(F)(F)CO)c1cccc(F)c1Cl as well?
≤ 100 nM
